# Tested on: Coxsackievirus B5
# test: Antiviral activity against human CVB5 infected in african green monkey Vero76 cells assessed as inhibition of virus-induced cytopathogenicity after 3 days by plaque reduction assay
# Assay type: functional, organism-based
# run.conditions: Enterovirus B, Vero 76, 72 h
recorded.endpoint: EC50

Just so you know, measured EC50 for COc1cc(/C=C/C(=O)OCCCn2nnc3ccccc32)cc(OC)c1OC came out at > 100 µM

Record summary for Nc1nc2c(ncn2COCCO)c(=O)[nH]1 [ACYCLOVIR] : reported EC50 = > 100 µM

What the record says about COc1cc(C(=O)OCCn2nnc3ccccc32)cc(OC)c1OC : EC50 is > 100 µM

Field EC50 (entry O=C(O)COc1ccc(-n2nc3ccc(Cl)cc3[n+]2[O-])cc1 ) reads > 100 µM

Measured EC50 of COc1cc(C(=O)OCCCn2nc3ccccc3n2)cc(OC)c1OC : > 100 µM

Input FC(F)(F)c1ccc2c(c1)nnn2C[C@@H]1CCCN2CCCC[C@H]12 . Output EC50: 38 µM

Lab book: EC50 of Oc1ccc(-n2nc3ccc(C(F)(F)F)cc3n2)cc1 noted as > 100 µM

// EC50 value for COc1ccc(Cn2nc3cc(Cl)c(Cl)cc3n2)cc1 : > 100 µM

GET /value?item= CC(=O)Nc1ccc(-n2nc3ccccc3n2)cc1 &field=EC50 returns 40 µM

# EC50 of CC(CC(=O)O)n1nc2c(Cl)c(Cl)c(Cl)c(Cl)c2n1 (stereo unspecified) = 25 µM

get_value(item= CN(C)c1cccc(C(=O)OCCn2nc3ccccc3n2)c1 , readout=EC50) returns > 100 µM
